# Assayed target: T1, LRP1 CR3-5 (human)
# T1 construct: range 852-973; also called L1 CR3-5; LRP1 CR3-S [sic]
# T1 sequence (Q07954 852-973): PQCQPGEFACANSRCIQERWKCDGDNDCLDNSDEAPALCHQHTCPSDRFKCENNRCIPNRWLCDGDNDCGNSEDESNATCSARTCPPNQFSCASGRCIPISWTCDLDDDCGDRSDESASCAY
# Method summary: solid-phase assay, coated CR protein
Property label: % max binding (%)

MegaRAP1 d3 (designed binder, range 201-319 (mature RAP numbering); d3 of the variant selected on LRP2 CR89; also called RAPv2A d3; RAP v2A; not shown: N-terminal hexahistidine and S-peptide tags of pET30(+)a) LDRLRRVSHQGYTTEAKFEEPRVIDLWDLAQSANLTDKELEAFREELKYFKAKIEAHNHYQKQLEIAHEELRHAESVGDGERVSRSREKHALLEGRTKELGYTVKKHLQDLSGRISRAR	4
MegaRAP1 d3 A256K, E270K double revertant (designed binder) LDRLRRVSHQGYTTEAKFEEPRVIDLWDLAQSANLTDKELEAFREELKYFKAKIEKHNHYQKQLEIAHEKLRHAESVGDGERVSRSREKHALLEGRTKELGYTVKKHLQDLSGRISRAR	93
RAP d3 E251K, K256A, K270E (ligand, human, UniProt P30533 235-353, looked up, range 201-319 (mature RAP numbering); Forward mutant of m1; same construct; also called RAP E251K, K256A, K270E; not shown: N-terminal hexahistidine and S-peptide tags of pET30(+)a) LDRLRRVSHQGYSTEAEFEEPRVIDLWDLAQSANLTDKELEAFREELKHFKAKIEAHNHYQKQLEIAHEELRHAESVGDGERVSRSREKHALLEGRTKELGYTVKKHLQDLSGRISRAR	2
RAP d3 K256A, K270E (ligand, human, UniProt P30533 235-353, looked up, range 201-319 (mature RAP numbering); Forward mutant of m1; same construct; also called RAP K256A, K270E; not shown: N-terminal hexahistidine and S-peptide tags of pET30(+)a) LDRLRRVSHQGYSTEAEFEEPRVIDLWDLAQSANLTDKELEAFREELKHFEAKIEAHNHYQKQLEIAHEELRHAESVGDGERVSRSREKHALLEGRTKELGYTVKKHLQDLSGRISRAR	2
RAP d3 E251K, K270E (ligand, human, UniProt P30533 235-353, looked up, range 201-319 (mature RAP numbering); Forward mutant of m1; same construct; also called RAP E251K, K270E; not shown: N-terminal hexahistidine and S-peptide tags of pET30(+)a) LDRLRRVSHQGYSTEAEFEEPRVIDLWDLAQSANLTDKELEAFREELKHFKAKIEKHNHYQKQLEIAHEELRHAESVGDGERVSRSREKHALLEGRTKELGYTVKKHLQDLSGRISRAR	4
RAP d3 E217K (ligand, human, UniProt P30533 235-353, looked up, range 201-319 (mature RAP numbering); Forward mutant of m1; same construct; also called RAP E217K; not shown: N-terminal hexahistidine and S-peptide tags of pET30(+)a) LDRLRRVSHQGYSTEAKFEEPRVIDLWDLAQSANLTDKELEAFREELKHFEAKIEKHNHYQKQLEIAHEKLRHAESVGDGERVSRSREKHALLEGRTKELGYTVKKHLQDLSGRISRAR	91
